- System: HOP-62
- assay_details: relative viability (nuclei count vs DMSO), 5 days (fraction); higher = more cells survive
- settings: first compound 0.1265 µM
measurement_kind: relative viability
When you answer, write just the number.

// below: answered molecules
molecule | relative viability
Cc1sc2c(c1C)C(c1ccc(Cl)cc1)=N[C@@H](CC(=O)OC(C)(C)C)c1nnc(C)n1-2 [JQ1] + Cc1nc(Nc2ncc(C(=O)Nc3c(C)cccc3Cl)s2)cc(N2CCN(CCO)CC2)n1 [Dasatinib] (partner 0.075 µM) | 0.31
Cc1sc2c(c1C)C(c1ccc(Cl)cc1)=N[C@@H](CC(=O)OC(C)(C)C)c1nnc(C)n1-2 [JQ1] + CCNC(=O)c1noc(-c2cc(C(C)C)c(O)cc2O)c1-c1ccc(CN2CCOCC2)cc1 [Luminespib] (partner 0.01 µM) | 0.824
Cc1sc2c(c1C)C(c1ccc(Cl)cc1)=N[C@@H](CC(=O)OC(C)(C)C)c1nnc(C)n1-2 [JQ1] + Nc1nc2[nH]cc(CCc3ccc(C(=O)N[C@@H](CCC(=O)O)C(=O)O)cc3)c2c(=O)[nH]1 [Pemetrexed] (partner 0.2 µM) | 0.266

So what's the measured relative viability for this one? Cc1sc2c(c1C)C(c1ccc(Cl)cc1)=N[C@@H](CC(=O)OC(C)(C)C)c1nnc(C)n1-2 [JQ1] + C[C@]1(O)C[C@@H](c2nc(-c3ccc4ccc(-c5ccccc5)nc4c3)c3c(N)nccn32)C1 [Linsitinib] (partner 1 µM) 0.869

What do you get for Cc1sc2c(c1C)C(c1ccc(Cl)cc1)=N[C@@H](CC(=O)OC(C)(C)C)c1nnc(C)n1-2 [JQ1] + O=C(c1cc(Cc2n[nH]c(=O)c3ccccc23)ccc1F)N1CCN(C(=O)C2CC2)CC1 [Olaparib] (partner 8 µM) ? 0.285

What do you get for Cc1sc2c(c1C)C(c1ccc(Cl)cc1)=N[C@@H](CC(=O)OC(C)(C)C)c1nnc(C)n1-2 [JQ1] + Nc1ncn([C@H]2C[C@H](O)[C@@H](CO)O2)c(=O)n1 [Decitabine] (partner 2 µM) ? 0.19

###

- System: RERF-LC-KJ
- assay_details: relative viability (nuclei count vs DMSO), 5 days (fraction); higher = more cells survive
- settings: first compound 0.04 µM
The following molecules are listed with their measured relative viability values.
When you answer, write just the number.

// below: answered molecules
molecule | relative viability
Cc1sc2c(c1C)C(c1ccc(Cl)cc1)=N[C@@H](CC(=O)OC(C)(C)C)c1nnc(C)n1-2 [JQ1] + N=C(N)NC(=N)NCCc1ccccc1 [Phenformin] (partner 250 µM) | 0.402
Cc1sc2c(c1C)C(c1ccc(Cl)cc1)=N[C@@H](CC(=O)OC(C)(C)C)c1nnc(C)n1-2 [JQ1] + CC(=O)Nc1cccc(-n2c(=O)n(C3CC3)c(=O)c3c(Nc4ccc(I)cc4F)n(C)c(=O)c(C)c32)c1 [Trametinib] (partner 0.02 µM) | 0.907
Cc1sc2c(c1C)C(c1ccc(Cl)cc1)=N[C@@H](CC(=O)OC(C)(C)C)c1nnc(C)n1-2 [JQ1] + Cc1nc(Nc2ncc(C(=O)Nc3c(C)cccc3Cl)s2)cc(N2CCN(CCO)CC2)n1 [Dasatinib] (partner 0.075 µM) | 0.763

Let us examine a further case.
So what's the measured relative viability for this one? Cc1sc2c(c1C)C(c1ccc(Cl)cc1)=N[C@@H](CC(=O)OC(C)(C)C)c1nnc(C)n1-2 [JQ1] + Nc1ncn([C@H]2C[C@H](O)[C@@H](CO)O2)c(=O)n1 [Decitabine] (partner 2 µM) 0.648

###

The following compounds are listed with their measured relative viability values.
- System: NCI-H661
- assay_details: relative viability (nuclei count vs DMSO), 5 days (fraction); higher = more cells survive
- settings: first compound 0.1581 µM
When you answer, write just the number.

// below: answered compounds
compound | target_under_test | relative viability
COc1cc2nccc(Oc3ccc(NC(=O)Nc4cc(C)on4)c(Cl)c3)c2cc1OC [Tivozanib] + CC(=O)Nc1cccc(-n2c(=O)n(C3CC3)c(=O)c3c(Nc4ccc(I)cc4F)n(C)c(=O)c(C)c32)c1 [Trametinib] (partner 0.02 µM) | NCI-H661 | 0.522
COc1cc2nccc(Oc3ccc(NC(=O)Nc4cc(C)on4)c(Cl)c3)c2cc1OC [Tivozanib] + Nc1nc2[nH]cc(CCc3ccc(C(=O)N[C@@H](CCC(=O)O)C(=O)O)cc3)c2c(=O)[nH]1 [Pemetrexed] (partner 0.2 µM) | NCI-H661 | 0.909
Nc1ccn([C@@H]2O[C@H](CO)[C@@H](O)[C@@H]2O)c(=O)n1 [Cytarabine] + Cc1nc(NC(=O)N2CCC[C@H]2C(N)=O)sc1-c1ccnc(C(C)(C)C(F)(F)F)c1 [Alpelisib] (partner 2 µM) | NCI-H661 | 0.24

Short answer please: relative viability, NCI-H661, entry Nc1ccn([C@@H]2O[C@H](CO)[C@@H](O)[C@@H]2O)c(=O)n1 [Cytarabine] + N=C(N)NC(=N)NCCc1ccccc1 [Phenformin] (partner 250 µM) 0.23

What do you get for Nc1ccn([C@@H]2O[C@H](CO)[C@@H](O)[C@@H]2O)c(=O)n1 [Cytarabine] + Cc1cc(Nc2cc(N3CCN(C)CC3)nc(Sc3ccc(NC(=O)C4CC4)cc3)n2)n[nH]1 [Tozasertib] (partner 0.1 µM) ? 0.349

###

- Test system: LCLC-97TM1
- assay_details: relative viability (nuclei count vs DMSO), 5 days (fraction); higher = more cells survive
- settings: first compound 0.02 µM
Simple rule here: relative viability less than 0.1 is 1, otherwise -1.

Worked cases, answers included:
compound | discrete_label
CC(=O)O[C@@]12CO[C@@H]1C[C@H](O)[C@@]1(C)C(=O)[C@H](O)C3=C(C)[C@@H](OC(=O)[C@H](O)[C@@H](NC(=O)OC(C)(C)C)c4ccccc4)C[C@@](O)([C@@H](OC(=O)c4ccccc4)[C@H]21)C3(C)C [Docetaxel] + CCNC(=O)c1noc(-c2cc(C(C)C)c(O)cc2O)c1-c1ccc(CN2CCOCC2)cc1 [Luminespib] (partner 0.01 µM) | -1
CC(=O)O[C@@]12CO[C@@H]1C[C@H](O)[C@@]1(C)C(=O)[C@H](O)C3=C(C)[C@@H](OC(=O)[C@H](O)[C@@H](NC(=O)OC(C)(C)C)c4ccccc4)C[C@@](O)([C@@H](OC(=O)c4ccccc4)[C@H]21)C3(C)C [Docetaxel] + O=C(CCCCCCC(=O)Nc1ccccc1)NO [Vorinostat] (partner 1 µM) | 1
CC(=O)O[C@@]12CO[C@@H]1C[C@H](O)[C@@]1(C)C(=O)[C@H](O)C3=C(C)[C@@H](OC(=O)[C@H](O)[C@@H](NC(=O)OC(C)(C)C)c4ccccc4)C[C@@](O)([C@@H](OC(=O)c4ccccc4)[C@H]21)C3(C)C [Docetaxel] + Cc1cc(Nc2cc(N3CCN(C)CC3)nc(Sc3ccc(NC(=O)C4CC4)cc3)n2)n[nH]1 [Tozasertib] (partner 0.1 µM) | -1

Now look at this one.
# strict comparison: is reported relative viability < 0.1? input = CC(=O)O[C@@]12CO[C@@H]1C[C@H](O)[C@@]1(C)C(=O)[C@H](O)C3=C(C)[C@@H](OC(=O)[C@H](O)[C@@H](NC(=O)OC(C)(C)C)c4ccccc4)C[C@@](O)([C@@H](OC(=O)c4ccccc4)[C@H]21)C3(C)C [Docetaxel] + O=C(c1cc(Cc2n[nH]c(=O)c3ccccc23)ccc1F)N1CCN(C(=O)C2CC2)CC1 [Olaparib] (partner 8 µM) 1

###

- Test system: HCC-827
- assay_details: relative viability (nuclei count vs DMSO), 5 days (fraction); higher = more cells survive
- settings: first compound 5 µM
The following compounds are listed with their measured relative viability values.
When you answer, write just the number.

compound | relative viability
O=C(O)CCCCC(CCSCc1ccccc1)SCc1ccccc1 (configuration not stated) [CPI-613] + Nc1ncn([C@H]2C[C@H](O)[C@@H](CO)O2)c(=O)n1 [Decitabine] (partner 2 µM) | 0.363

Let us examine a further case.
Short answer please: relative viability, HCC-827, entry O=C(O)CCCCC(CCSCc1ccccc1)SCc1ccccc1 (configuration not stated) [CPI-613] + C[C@]1(O)C[C@@H](c2nc(-c3ccc4ccc(-c5ccccc5)nc4c3)c3c(N)nccn32)C1 [Linsitinib] (partner 1 µM) 0.967

###

- Tested on: NCI-H2405
- assay_details: relative viability (nuclei count vs DMSO), 5 days (fraction); higher = more cells survive
- settings: first compound 158.11 µM
measurement_kind: relative viability
When you answer, write just the number.

molecule | test_value
O=C(O)CCCCC(CCSCc1ccccc1)SCc1ccccc1 (centres undefined) [CPI-613] + CC(=O)c1c(C)c2cnc(Nc3ccc(N4CCNCC4)cn3)nc2n(C2CCCC2)c1=O [Palbociclib] (partner 0.5 µM) | 0.167
O=C(O)CCCCC(CCSCc1ccccc1)SCc1ccccc1 (centres undefined) [CPI-613] + CCNC(=O)c1noc(-c2cc(C(C)C)c(O)cc2O)c1-c1ccc(CN2CCOCC2)cc1 [Luminespib] (partner 0.01 µM) | 0.736
O=C(O)CCCCC(CCSCc1ccccc1)SCc1ccccc1 (centres undefined) [CPI-613] + COc1cc2c(Oc3ccc(NC(=O)C4(C(=O)Nc5ccc(F)cc5)CC4)cc3F)ccnc2cc1OCCCN1CCOCC1 [Foretinib] (partner 0.25 µM) | 0.93

Short answer please: relative viability, NCI-H2405, entry O=C(O)CCCCC(CCSCc1ccccc1)SCc1ccccc1 (centres undefined) [CPI-613] + Cc1nc(Nc2ncc(C(=O)Nc3c(C)cccc3Cl)s2)cc(N2CCN(CCO)CC2)n1 [Dasatinib] (partner 0.075 µM) 0.201
